This listing pairs compounds with measured Kp at 2 h.
experiment: Tissue distribution study in minipigs after intravenous administration; type: in vivo, Yucatan minipigs; settings: Yucatan, minipig, liver / plasma, iv, 12.5 mg/kg, 2 h after intravenous administration of 12.5 mg/kg, read-out: T/P Ratio Liver/Plasma

CC(=O)NC1C(O)CC(OCC2OC(OC3C(CO)OC(O)C(O)C3O)C(O)C(O)C2O)(C(=O)O)OC1C(O)C(O)CO (centres unmarked)
0.12 to 0.14

Kindly review the next compound as well.
In: What does the data say about its Kp at 2 h? Entry: CC(=O)N[C@H]1[C@H]([C@H](O)[C@H](O)CO)O[C@@](O[C@H]2[C@@H](O)[C@@H](CO)O[C@@H](O[C@H]3[C@H](O)[C@@H](O)[C@H](O)O[C@@H]3CO)[C@@H]2O)(C(=O)O)C[C@@H]1O
Out: 0.12 to 0.14
